Reference source: patent US6720346B2

# target_or_test_system: CDK2/cyclin A (Homo sapiens, UniProt P24941)
# Construct: cyclin A: E. coli
# test_name: Inhibition of CDK2/cyclin A retinoblastoma kinase activity (Ki; % inhibition)
# run_conditions: apparent Ki, CDK2/cyclin A, Rb substrate
// values below are reported Ki

[
  {
    "compound": "Cc1ccsc1C(=O)c1sc(Nc2ccc(C(=O)NC[C@@H]3CCCN3C)cc2)nc1N [Example A70]",
    "Ki (nM)": 6.1
  },
  {
    "compound": "Nc1nc(Nc2ccc(C(=O)NCCN3CCCC3)cc2)sc1C(=O)c1c(F)cccc1F [Example A35]",
    "Ki (nM)": 54
  },
  {
    "compound": "CCN1CCCC1CNC(=O)c1ccc(Nc2nc(N)c(C(=O)c3c(F)cccc3F)s2)cc1 (centres unmarked) [Example A11]",
    "Ki (nM)": 82
  },
  {
    "compound": "Nc1nc(Nc2ccc(C(=O)Nc3ccc(N4CCOCC4)cc3)cc2)sc1C(=O)c1c(F)cccc1F [Example A21]",
    "Ki (nM)": 105
  },
  {
    "compound": "CN(C)C1(CNC(=O)c2ccc(Nc3nc(N)c(C(=O)c4c(F)cccc4F)s3)cc2)CCC1 [Example A78]",
    "Ki (nM)": 110
  },
  {
    "compound": "CC(C)(CNC(=O)c1ccc(Nc2nc(N)c(C(=O)c3c(F)cccc3F)s2)cc1)N1CCCCC1 [Example A52]",
    "Ki (nM)": 170
  },
  {
    "compound": "Nc1nc(Nc2ccc(C(=O)NCCN3CCOCC3)cc2)sc1C(=O)c1c(F)cccc1F [Example A1]",
    "Ki (nM)": 140
  },
  {
    "compound": "Nc1nc(Nc2ccc(C(=O)NCCc3cccs3)cc2)sc1C(=O)c1c(F)cccc1F [Example A26]",
    "Ki (nM)": 79
  }
]

* * *

# target_or_test_system: CDK2/cyclin A (Homo sapiens, UniProt P24941)
# Construct: made in house; host or cells: CDK2: insect cells (baculovirus); cyclin A: E. coli
# test_name: Inhibition of CDK2/cyclin A retinoblastoma kinase activity (Ki; % inhibition)
# Type: biochemical
# run_conditions: 0.03 μM compound
// values below are reported CDK2 % Inhibition at 0.03 μM
measured_attribute: CDK2 % Inhibition at 0.03 μM (%)

[
  {
    "compound_smiles": "CC(=O)c1ccc(NC(=O)c2ccc(Nc3nc(N)c(C(=O)c4c(F)cccc4F)s3)cc2)cc1",
    "target_or_test_system": "CDK2/cyclin A (Homo sapiens, UniProt P24941)",
    "unit_spec": "%",
    "endpoint_result": "−5"
  },
  {
    "compound_smiles": "Nc1nc(Nc2ccc(C(=O)NCCNc3ccc([N+](=O)[O-])cn3)cc2)sc1C(=O)c1c(F)cccc1F",
    "target_or_test_system": "CDK2/cyclin A (Homo sapiens, UniProt P24941)",
    "unit_spec": "%",
    "endpoint_result": 43
  },
  {
    "compound_smiles": "N#CCCN(Cc1cccnc1)C(=O)c1ccc(Nc2nc(N)c(C(=O)c3c(F)cccc3F)s2)cc1",
    "target_or_test_system": "CDK2/cyclin A (Homo sapiens, UniProt P24941)",
    "unit_spec": "%",
    "endpoint_result": "−2"
  },
  {
    "compound_smiles": "Nc1nc(Nc2ccc(C(=O)NCCc3ccc(F)cc3)cc2)sc1C(=O)c1c(F)cccc1F",
    "target_or_test_system": "CDK2/cyclin A (Homo sapiens, UniProt P24941)",
    "unit_spec": "%",
    "endpoint_result": 29
  },
  {
    "compound_smiles": "COc1cccc(CNC(=O)c2ccc(Nc3nc(N)c(C(=O)c4c(F)cccc4F)s3)cc2)c1OC",
    "target_or_test_system": "CDK2/cyclin A (Homo sapiens, UniProt P24941)",
    "unit_spec": "%",
    "endpoint_result": 17
  },
  {
    "compound_smiles": "Nc1nc(Nc2ccc(C(=O)NCCc3cccnc3)cc2)sc1C(=O)c1c(F)cccc1F",
    "target_or_test_system": "CDK2/cyclin A (Homo sapiens, UniProt P24941)",
    "unit_spec": "%",
    "endpoint_result": 1
  },
  {
    "compound_smiles": "Nc1nc(Nc2ccc(C(=O)NCCN3CCNC3=O)cc2)sc1C(=O)c1c(F)cccc1F",
    "target_or_test_system": "CDK2/cyclin A (Homo sapiens, UniProt P24941)",
    "unit_spec": "%",
    "endpoint_result": 12
  },
  {
    "compound_smiles": "Nc1nc(Nc2ccc(C(=O)Nc3ccccc3F)cc2)sc1C(=O)c1c(F)cccc1F",
    "target_or_test_system": "CDK2/cyclin A (Homo sapiens, UniProt P24941)",
    "unit_spec": "%",
    "endpoint_result": 14
  },
  {
    "compound_smiles": "Nc1nc(Nc2ccc(C(=O)Nc3ccc(OC(F)(F)F)cc3)cc2)sc1C(=O)c1c(F)cccc1F",
    "target_or_test_system": "CDK2/cyclin A (Homo sapiens, UniProt P24941)",
    "unit_spec": "%",
    "endpoint_result": 8
  },
  {
    "compound_smiles": "Nc1nc(Nc2ccc(C(=O)Nc3cccc(SC(F)(F)F)c3)cc2)sc1C(=O)c1c(F)cccc1F",
    "target_or_test_system": "CDK2/cyclin A (Homo sapiens, UniProt P24941)",
    "unit_spec": "%",
    "endpoint_result": 10
  },
  {
    "compound_smiles": "Cc1cccc(CNC(=O)c2ccc(Nc3nc(N)c(C(=O)c4c(F)cccc4F)s3)cc2)c1C",
    "target_or_test_system": "CDK2/cyclin A (Homo sapiens, UniProt P24941)",
    "unit_spec": "%",
    "endpoint_result": 30
  },
  {
    "compound_smiles": "COc1ccc(CCN(C)C(=O)c2ccc(Nc3nc(N)c(C(=O)c4c(F)cccc4F)s3)cc2)cc1OC",
    "target_or_test_system": "CDK2/cyclin A (Homo sapiens, UniProt P24941)",
    "unit_spec": "%",
    "endpoint_result": "−3"
  },
  {
    "compound_smiles": "CCCCCNC(=O)c1ccc(Nc2nc(N)c(C(=O)c3c(F)cccc3F)s2)cc1",
    "target_or_test_system": "CDK2/cyclin A (Homo sapiens, UniProt P24941)",
    "unit_spec": "%",
    "endpoint_result": 15
  },
  {
    "compound_smiles": "CCOC(CCCNC(=O)c1ccc(Nc2nc(N)c(C(=O)c3c(F)cccc3F)s2)cc1)OCC",
    "target_or_test_system": "CDK2/cyclin A (Homo sapiens, UniProt P24941)",
    "unit_spec": "%",
    "endpoint_result": 12
  },
  {
    "compound_smiles": "Nc1nc(Nc2ccc(C(=O)N3CCN(Cc4ccccc4)CC3)cc2)sc1C(=O)c1c(F)cccc1F",
    "target_or_test_system": "CDK2/cyclin A (Homo sapiens, UniProt P24941)",
    "unit_spec": "%",
    "endpoint_result": 17
  },
  {
    "compound_smiles": "N#CCc1ccc(NC(=O)c2ccc(Nc3nc(N)c(C(=O)c4c(F)cccc4F)s3)cc2)cc1",
    "target_or_test_system": "CDK2/cyclin A (Homo sapiens, UniProt P24941)",
    "unit_spec": "%",
    "endpoint_result": 1
  }
]
